# System: male gypsy moth antenna
# ASSAY_COMMENT: Coupled gas chromatographic-electroantennographic detection (GC-EAD)
# Parameters: species or system Lymantria dispar
# MEASUREMENT_SETUP: EAD peak size and shape (sharp/broad)

{"COMPOUND_SMILES": "C=CCOc1cccc(OCC=C)c1", "GC-EAD activity": "None"}
{"COMPOUND_SMILES": "CCOc1ccccc1O", "GC-EAD activity": "None"}
{"COMPOUND_SMILES": "C=CCOc1ccc(OCCCC)cc1", "GC-EAD activity": "None"}
{"COMPOUND_SMILES": "C=CCc1ccc(OCCC)c(OC)c1", "GC-EAD activity": "None"}
{"COMPOUND_SMILES": "C=CCOc1ccccc1OCCCC", "GC-EAD activity": "++ broad"}
{"COMPOUND_SMILES": "C=CCOc1ccc(OCCC(C)C)cc1", "GC-EAD activity": "None"}
{"COMPOUND_SMILES": "COc1ccc(OCCC(C)C)cc1", "GC-EAD activity": "None"}
{"COMPOUND_SMILES": "C=CCOc1ccccc1OCCC", "GC-EAD activity": "++ broad"}
{"COMPOUND_SMILES": "CCCCOc1ccccc1OCCCC", "GC-EAD activity": "+ broad"}
{"COMPOUND_SMILES": "C=CCOc1cccc(OCCC(C)C)c1", "GC-EAD activity": "None"}
{"COMPOUND_SMILES": "CCCOc1ccccc1OCCC(C)C", "GC-EAD activity": "+ broad"}
{"COMPOUND_SMILES": "CC(C)CCOc1ccc(OCCC(C)C)cc1", "GC-EAD activity": "None"}
{"COMPOUND_SMILES": "CCCCOc1cccc(OC)c1", "GC-EAD activity": "None"}
{"COMPOUND_SMILES": "CCOc1cccc(OCC)c1", "GC-EAD activity": "Trace"}
{"COMPOUND_SMILES": "CCCCOc1ccc(OC)cc1", "GC-EAD activity": "None"}
{"COMPOUND_SMILES": "CC(C)CCOc1ccccc1O", "GC-EAD activity": "None"}
{"COMPOUND_SMILES": "COc1cccc(OC)c1", "GC-EAD activity": "Trace"}
{"COMPOUND_SMILES": "CCCCOc1ccc(OCC)cc1", "GC-EAD activity": "None"}
{"COMPOUND_SMILES": "COc1ccccc1O", "GC-EAD activity": "None"}
{"COMPOUND_SMILES": "CCOc1ccc(OC)cc1", "GC-EAD activity": "++ sharp"}
{"COMPOUND_SMILES": "CCOc1cccc(OCCC(C)C)c1", "GC-EAD activity": "None"}
{"COMPOUND_SMILES": "CCCCOc1ccc(OCCC(C)C)cc1", "GC-EAD activity": "None"}
{"COMPOUND_SMILES": "C=CCOc1cccc(OCC)c1", "GC-EAD activity": "None"}
{"COMPOUND_SMILES": "CCCCOc1cccc(OCCCC)c1", "GC-EAD activity": "None"}
{"COMPOUND_SMILES": "CCOc1cccc(O)c1", "GC-EAD activity": "None"}
{"COMPOUND_SMILES": "C=CCOc1ccccc1O", "GC-EAD activity": "None"}
{"COMPOUND_SMILES": "C=CCOc1cccc(OCCCC)c1", "GC-EAD activity": "None"}
{"COMPOUND_SMILES": "C=CCOc1ccccc1OC", "GC-EAD activity": "+ sharp"}
{"COMPOUND_SMILES": "CCCCOc1cccc(O)c1", "GC-EAD activity": "None"}
{"COMPOUND_SMILES": "CCOc1ccccc1OCCC(C)C", "GC-EAD activity": "++ sharp"}
{"COMPOUND_SMILES": "CCCOc1ccc(OCCC(C)C)cc1", "GC-EAD activity": "None"}
{"COMPOUND_SMILES": "COc1ccc(OC)cc1", "GC-EAD activity": "+ sharp"}
